- ASSAY SUMMARY: Quantitative High-Throughput drug screen in 47 multiple myeloma cell lines against the NCATS MIPE library collection: UTMC2_PLB cell viability assay (AID 1919868); further: nearly all actives have a fitted effect of over 55% in size; further: potency means the concentration at half of the fitted maximal effect
- MEASUREMENT SETUP: CellTiter-Glo ATP luminescence, 48 h
Results filed as inconclusive are left out. Active and inactive are the calls of the source. The call rests on the fitted dose curve; in most records, active means well fitted cell-killing curve with a large enough effect; inconclusive means small, poorly fitted or top-dose-only effect, or effect the other way; inactive means no such curve, though single readings can be large or run the other way.
PROPERTY: Potency

- C=C[C@@H]1CN2CCC1C[C@@H]2C(O)c1ccnc2ccc(OC)cc12 (stereo partly specified): inactive
- CN1[C@H]2CC[C@H]1CC(OC(=O)c1c[nH]c3ccccc13)C2 (stereo partly specified): inactive
- Cc1ccc(S(=O)(=O)Nc2nc3ccccc3nc2Nc2ccc3nsnc3c2)cc1: 1.02 µM (active)
- Cc1cn([C@@H]2C[C@@H](O)[C@H](CO)O2)c(=O)[nH]c1=O: inactive
- Cc1[nH]c(C=C2C(=O)Nc3ccc(S(=O)(=O)N(C)c4cccc(Cl)c4)cc32)c(C)c1C(=O)N1CCN(C)CC1: 11.8 µM (active)
- CCC(C)SSc1ncc[nH]1 (stereo unspecified): 8.33 µM (active)
- CCN1C[C@H](C)n2c(c(O)c3c(=O)n(Cc4ccc(F)c(Cl)c4)nc(C(=O)NC)c32)C1=O: inactive
- CS(=O)(=O)c1ccc(C2=C(c3ccccc3)C(=O)OC2)cc1: inactive
- CCOC(=O)[C@@H](N)CCC(=O)N[C@@H](CSCc1ccccc1)C(=O)N[C@@H](C(=O)OCC)c1ccccc1: 23.5 µM (active)
- CC[C@H](C)C(=O)O[C@H]1C[C@H](O)C=C2C=C[C@H](C)[C@H](CC[C@@H](O)C[C@@H](O)CC(=O)O)[C@H]21: inactive
- C=CC[N+]1([C@H]2C[C@H]3[C@@H]4CC[C@H]5C[C@H](O)[C@@H](N6CCOCC6)C[C@]5(C)[C@@H]4CC[C@]3(C)[C@H]2OC(C)=O)CCCC1: inactive
- Cc1ccc(NC(=O)c2cccc(N(C)C)c2)cc1NC(=O)c1ccc(O)cc1: 0.332 µM (active)
- CN(C)CCOc1ccc(C(=C(CCCl)c2ccccc2)c2ccccc2)cc1: inactive
- C[C@@]1(c2cc(-c3cncnc3)c(F)cc2F)CCSC(N)=N1: inactive
- O=C(Nc1cccc(Cl)c1)Nc1ncc(CCNc2ncnc3ccsc23)s1: 0.372 µM (active)
- CN(C)CCN(Cc1ccc(Cl)cc1)c1ccccn1: 16.6 µM (active)
- C[C@@]1(C(=O)Nc2ccc(F)nc2)CCCN1c1nc(Nc2cc(C3CC3)[nH]n2)c2cccn2n1: 0.0118 µM (active)
- O=C1Nc2ccc(I)cc2C1=Cc1cc(Br)c(O)c(Br)c1: 14.8 µM (active)
- O=C(O)CCC=CCC[C@@H]1[C@H](N2CCCCC2)[C@@H](O)C[C@@H]1OCc1ccc(-c2ccccc2)cc1: inactive
- CNC(=O)[C@H](CC1=CN=C2C=CCC=C12)NC(=O)[C@@H](CC(=O)NO)CC(C)C: 18.7 µM (active)
- COc1nc(C)cnc1NS(=O)(=O)c1cccnc1-c1ccc(-c2nnco2)cc1: inactive

---

- ASSAY SUMMARY: qHTS of pediatric cancer cell lines to identify multiple opportunities for drug repurposing: Primary screen for Saos-2 cells (AID 1347097); further: nearly all actives have a fitted effect of over 40% in size
- MEASUREMENT SETUP: Saos-2 viability, CellTiter-Glo ATP luminescence, 48 h; series mostly up to 46 µM
- Experimental: Drug repurposing or repositioning has been offered as a strategy for drug development in oncology programs. This approach has special potential for childhood cancers and other rare or orphan diseases, where the expected return on new drug development has been a disincentive to pharmaceuticals. […] We employed a titration-based paradigm (quantitative high-throughput screening or qHTS), where all compounds were tested at multiple concentrations for their effect on cell viability. […]
Results filed as inconclusive are left out. Calls of active or inactive are those of the source. The call rests on the fitted dose curve; in most records, active means well fitted cell-killing curve with a large enough effect; inconclusive means small, poorly fitted or top-dose-only effect; inactive means no such curve, though single readings can be large or run the other way.
Classes used: active, inactive

* O=C1C(CCC(O)c2ccc(F)cc2)C(c2ccc(O)cc2)N1c1ccc(F)cc1 (centres undefined) | inactive
* CCCCC(C)(C)[C@H](O)C=C[C@H]1[C@H](O)CC(=O)[C@H]1CC=CCCCC(=O)O | inactive
* O=C(NCCCCN1CCOCC1)c1cc2ccccc2o1 | inactive
* CNC1CCC(N(Cc2cccc(-c3ccncc3)c2)C(=O)c2sc3ccccc3c2Cl)CC1 (centres undefined) | active
* CC(NCCc1ccc(O)cc1)C(O)c1ccc(O)cc1 (centres undefined) | inactive
* Cc1cccc(Nc2nc(N[C@@H]3CCCC[C@H]3N)ncc2C(N)=O)c1 | active
* CCC(=O)OCC(=O)[C@@]1(OC(=O)CC)[C@@H](C)C[C@@H]2[C@H]3CCC4=CC(=O)C=C[C@]4(C)[C@@]3(F)[C@@H](O)C[C@@]21C | active
* CCn1c(-c2nonc2N)nc2cncc(CNC3CCNCC3)c21 | active
* CN1C(=O)C(Cc2c[nH]c3ccccc23)NC1=S (centres undefined) | inactive
* c1ccc(-c2oc3ncnc(NC[C@@H]4CCCO4)c3c2-c2ccccc2)cc1 | active
* COc1cc([C@@H]2c3cc4c(cc3[C@@H](O[C@@H]3O[C@@H]5CO[C@@H](C)O[C@@H]5[C@H](O)[C@@H]3O)[C@H]3COC(=O)[C@H]23)OCO4)cc(OC)c1O | active
* CN1C(=O)C[C@H](C(=O)N[C@@H](Cc2cnc[nH]2)C(=O)N2CCC[C@@H]2C(N)=O)NC1=O | inactive
* COc1ccc(-c2cc3nccn3c(Nc3ncccc3C(N)=O)n2)cc1OC | active
* COc1cc2nccc(Oc3ccc(NC(=O)Nc4cc(C)on4)c(Cl)c3)c2cc1OC | active

---

- ASSAY SUMMARY: qHTS of pediatric cancer cell lines to identify multiple opportunities for drug repurposing: Primary screen for SK-N-SH cells (AID 1347098); further: nearly all actives have a fitted effect of over 65% in size
- MEASUREMENT SETUP: SK-N-SH viability, CellTiter-Glo luminescence, 48 h; series mostly up to 57 µM
Results filed as inconclusive are left out. The source made the active and inactive calls. Calls come from the whole dose curve; as a rule, active = well fitted cell-killing curve with a large enough effect; inconclusive = small, poorly fitted or top-dose-only effect; inactive = no such curve, though single readings can be large or run the other way.
Outcome codes: t = active, f = inactive

* Cc1nn(Cc2ccccc2Cl)c(C)c1CN(C)CC(O)COc1ccc(Cl)cc1 (configuration not stated) | t
* CN(C)CCOc1ccc(C(=C(CCCl)c2ccccc2)c2ccccc2)cc1 | f
* CC(C)CN(C[C@@H](O)[C@H](Cc1ccccc1)NC(=O)O[C@H]1CO[C@H]2OCC[C@H]21)S(=O)(=O)c1ccc(N)cc1 | f
* CN1N=C(N)c2cn([C@@H]3O[C@H](COP(=O)(O)O)[C@@H](O)[C@@H]3O)c3ncnc1c23 | t
* C[C@@H]1O[C@@H](O[C@H]2CC[C@@]3(C)[C@H](CC[C@@H]4[C@H]3C[C@@H](O)[C@]3(C)[C@@H](C5=CC(=O)OC5)CC[C@]43O)C2)C[C@H](O)[C@@H]1O[C@H]1C[C@H](O)[C@H](O[C@H]2C[C@H](O)[C@@H](O)[C@@H](C)O2)[C@H](C)O1 (stereo in doubt) | t
* Cc1cccc(-c2[nH]c(C(C)(C)C)nc2-c2ccc3c(c2)OCO3)n1 | t
* C[C@H]1COC2=C1C(=O)C(=O)c1c2ccc2c1CCCC2(C)C | f

---

- ASSAY SUMMARY: Quantitative High-Throughput drug screen in 47 multiple myeloma cell lines against the NCATS MIPE library collection: EJM_DSMZ cell viability assay (AID 1918926; further: nearly all actives have a fitted effect of over 30% in size)
- MEASUREMENT SETUP: EJM myeloma cell viability, CellTiter-Glo ATP, 48 h; series mostly up to 45.8 µM
Inconclusive results are not listed. Activity calls are given as the source filed them. The call rests on the fitted dose curve; in most records, active means well fitted cell-killing curve with a large enough effect; inconclusive means small, poorly fitted or top-dose-only effect, or effect the other way; inactive means no such curve, though single readings can be large or run the other way.
Labels: true (1) = active, false (0) = inactive

• O=C(CO)N1CCC(c2[nH]nc(-c3ccc(Cl)cc3)c2-c2ccncn2)CC1 = false (0)
• C=CC(=O)Nc1cccc(Sc2nc(Nc3ccc(N4CCN(C)CC4)cc3)ncc2Cl)c1 = true (1)
• CC(=O)N1CCN(c2ccc(OCc3nn(C)c(C)c3-c3cccc4c(CCCOc5cc(C)c(Cl)c(C)c5)c(C(=O)O)n(Cc5cccnc5)c34)cc2)CC1 = true (1)
• COc1ccc(-c2oc3c(CC=C(C)C)c(O)cc(O)c3c(=O)c2O)cc1 = true (1)

---

- ASSAY SUMMARY: Quantitative High-Throughput drug screen in 47 multiple myeloma cell lines against the NCATS MIPE library collection: OPM1_PLB cell viability assay (AID 1918989); further: nearly all actives have a fitted effect of over 40% in size
- MEASUREMENT SETUP: CellTiter-Glo, 48 h; series mostly up to 45.8 µM
Inconclusive results are not listed. The source made the active and inactive calls. Calls follow the shape of the dose curve; as a rule, active = well fitted cell-killing curve with a large enough effect; inconclusive = small, poorly fitted or top-dose-only effect, or effect the other way; inactive = no such curve, though single readings can be large or run the other way.
Classes used: active, inactive

* CC1(C)[C@H]2CC[C@]3(C)[C@@H](C(=O)C=C4[C@@H]5C[C@@](C)(C(=O)O)CC[C@]5(C)CC[C@]43C)[C@@]2(C)CC[C@@H]1O | inactive
* O=C(O)Cc1cccc(OCCCN(Cc2cccc(C(F)(F)F)c2Cl)CC(c2ccccc2)c2ccccc2)c1 | active
* CN1CCc2c(n(Cc3ccc(C(=O)NO)cc3)c3ccccc23)C1 | active
* NCC1CCC(C(=O)O)CC1 (stereo not drawn) | inactive
* O=C(O)c1ccc(O)c2ncc(N3CCOCC3)cc12 | inactive
* Fc1ccc(C(c2ccc(F)cc2)N2CCN(CC=Cc3ccccc3)CC2)cc1 | inactive
* CC(C)Oc1cc(Nc2nc(N[C@@H](C)c3ccc(F)cn3)ncc2Cl)[nH]n1 | active
* Cn1cnc(-c2cc3nccc(Oc4ccc(NC(=S)NC(=O)Cc5ccccc5)cc4F)c3s2)c1 | active
* CC1=C(CC(=O)O)c2cc(F)ccc2C1=Cc1ccc(S(C)=O)cc1 (stereo not drawn) | active
* Cc1ccc(C2=Nc3ccc(Cl)cc3OC2)cc1 | active
* O=C(c1ccc(C(=O)N2CCC(N3CCCC3)CC2)c(Nc2ccccc2)c1)N1CCC(N2CCCC2)CC1 | inactive
* CC(C)CNc1ccnc(NCc2csc(-c3ccccc3)n2)n1 | active
* Cc1nn(Cc2ccccc2Cl)c(C)c1CN(C)CC(O)COc1ccc(Cl)cc1 (stereo not drawn) | active
* Nc1ncnc2c1c(-c1cccc(OCc3ccccc3)c1)cn2C1CC(CN2CCC2)C1 (stereo not drawn) | active
* CN1N=C(N)c2cn([C@@H]3O[C@H](COP(=O)(O)O)[C@@H](O)[C@@H]3O)c3ncnc1c23 | active
* C[C@H]1O[C@@H](n2cc(F)c(=O)[nH]c2=O)[C@H](O)[C@H]1O | active
* C[C@@H]1O[C@@H](O[C@H]2CC[C@@]3(C)[C@H](CC[C@@H]4[C@H]3C[C@@H](O)[C@]3(C)[C@@H](C5=CC(=O)OC5)CC[C@]43O)C2)C[C@H](O)[C@@H]1O[C@H]1C[C@H](O)[C@H](O[C@H]2C[C@H](O)[C@@H](O)[C@@H](C)O2)[C@H](C)O1 (stereo in doubt) | active
* O=C1Nc2ccc(I)cc2C1=Cc1cc(Br)c(O)c(Br)c1 | active
